# Assay system: cynomolgus monkey (cyno) TIGIT protein (cynomolgus monkey, UniProt A0A7N9I9V4 89-209)
# Sequence (A0A7N9I9V4 entry or part of it): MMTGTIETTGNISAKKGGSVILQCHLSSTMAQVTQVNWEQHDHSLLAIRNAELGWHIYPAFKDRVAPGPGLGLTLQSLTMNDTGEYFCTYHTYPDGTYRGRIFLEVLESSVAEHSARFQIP
# Protocol: SPR, captured mAb
pKd by entry:
Scale note: pKd = -log10(concentration in M).

INSERT INTO results (binder, measured_metric, endpoint_value) VALUES
  ('h15C8.L1H5 (antibody, V domains shown, VH: A67V against h15C8.L1H1; FR/HVR pieces) VH: EVQLVQSGAEVKKPGASVKVSCKASGYTFTEHSIYWLRQAPGQRLEIIGRIDPKNGRTYFVDKFKNRVTLTTDTSASTAYMELSSLRSEDTAVYFCARIDGFYFDFWGQGTLVTVSS VL: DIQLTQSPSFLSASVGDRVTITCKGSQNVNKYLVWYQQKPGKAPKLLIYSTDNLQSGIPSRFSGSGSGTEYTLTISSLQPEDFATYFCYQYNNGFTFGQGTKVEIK', 'pKd', 8.94);

Now, please, on to the next binder.
query: Recorded pKd of h7E7.L5H1 (antibody, V domains shown, VL: I58V, Y71F, F87Y against h7E7.L1H1; FR/HVR pieces) VH: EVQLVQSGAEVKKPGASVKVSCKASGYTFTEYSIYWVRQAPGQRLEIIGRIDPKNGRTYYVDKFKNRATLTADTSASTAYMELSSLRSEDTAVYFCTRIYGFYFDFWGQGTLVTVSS VL: DIQLTQSPSFLSASVGDRVTITCKGSQNVNKYLVWYQQKPGKAPKLLIYNTDNLQSGVPSRFSGSGSGTEFTLTISSLQPEDFATYYCYQYNNGFTFGQGTKVEIK , please.
result: 9.25
